Values compiled from patent US20260028354A1.

# key: entry, value: Dmax
target desc: ER in MCF-7 cells (Homo sapiens (Human))
Sequence (P03372 whole entry): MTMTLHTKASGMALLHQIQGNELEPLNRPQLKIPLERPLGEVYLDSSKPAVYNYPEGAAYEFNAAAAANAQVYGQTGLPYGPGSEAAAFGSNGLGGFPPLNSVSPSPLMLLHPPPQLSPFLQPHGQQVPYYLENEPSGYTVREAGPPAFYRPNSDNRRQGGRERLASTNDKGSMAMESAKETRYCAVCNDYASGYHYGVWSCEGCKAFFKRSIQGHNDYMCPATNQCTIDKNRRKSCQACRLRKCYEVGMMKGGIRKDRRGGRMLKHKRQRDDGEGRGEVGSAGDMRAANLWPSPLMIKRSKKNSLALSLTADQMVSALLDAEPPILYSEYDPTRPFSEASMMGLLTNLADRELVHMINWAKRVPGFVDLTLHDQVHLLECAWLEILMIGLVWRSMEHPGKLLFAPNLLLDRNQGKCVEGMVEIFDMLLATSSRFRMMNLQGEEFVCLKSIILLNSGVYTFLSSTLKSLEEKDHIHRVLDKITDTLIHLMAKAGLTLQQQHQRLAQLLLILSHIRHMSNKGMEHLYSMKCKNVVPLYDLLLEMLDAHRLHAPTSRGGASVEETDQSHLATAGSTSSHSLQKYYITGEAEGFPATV
measurement description: In-cell Western (ICW) ER degradation assay in MCF-7 cells
Format: cell-based
run conditions: MCF7, read-out: MCF7 Dmax, MCF-7, maximal ER degradation, 16 hrs treatment
Text: In-cell Western (ICW) assays in MCF-7 and T47D cell lines. Day 3: After 16 hrs of compounds treatment, cells were fixed by 4% PFA and permeabilized with elution buffer (0.1% Triton X-100 in 1% PBS Solution). Subsequently, cells were blocked with Intercept (PBS) Blocking Buffer (Li-COR, Odyssey Blocking Buffer), and were stained with ER (1:500, Cell signaling) primary antibody for overnight at cold room. […]

Use the examples below as a reference point.
Memo: O=C1CC[C@H](N2Cc3c(ccc4c3OCC43CCN(CC4CC5(CCN(c6cnc(C7c8ccc(O)cc8CCC7c7ccccc7)cn6)CC5)C4)CC3)C2=O)C(=O)N1 (some centres unmarked) [Compound A201] , reported Dmax: 50 to 75%

Memo: O=C1CC[C@H](N2Cc3c(ccc4c3OCC43CCN(CC4CC5COCC(C4)N5c4ccc([C@@H]5c6ccc(O)cc6CC[C@@H]5c5ccccc5)cc4)CC3)C2=O)C(=O)N1 (some centres unmarked) [Compound A81] , reported Dmax: 25 to 50%

Memo: O=C1CC[C@H](N2Cc3c(ccc4c3OCC43CCN(CC4CCC5(CC4)CN(c4ccc([C@H]6c7ccc(O)cc7CC[C@H]6c6ccccc6)cc4F)C5)CC3)C2=O)C(=O)N1 [Compound A160] , reported Dmax: 50 to 75%

Memo: O=C1CC[C@H](N2Cc3c(ccc4c3OCC43CCN(CC4CC5(CCN(c6ccc([C@@H]7c8ccc(O)cc8CC[C@@H]7c7ccccc7)cn6)CC5)C4)CC3)C2=O)C(=O)N1 [Compound A116] , reported Dmax: 50 to 75%

Continuing:
Memo: COc1cc(N2CCC3(CC2)CC(CN2CCC4(CC2)COc2cc5c(cc24)CN([C@H]2CCC(=O)NC2=O)C5=O)C3)ccc1[C@@H]1c2ccc(O)cc2CC[C@@H]1c1ccccc1 [Compound A162] , reported Dmax: 25 to 50%
